# systemUnderTest: biotinylated human Gal-3 (hGal-3) (Homo sapiens)
# Sequence (P17931 whole entry): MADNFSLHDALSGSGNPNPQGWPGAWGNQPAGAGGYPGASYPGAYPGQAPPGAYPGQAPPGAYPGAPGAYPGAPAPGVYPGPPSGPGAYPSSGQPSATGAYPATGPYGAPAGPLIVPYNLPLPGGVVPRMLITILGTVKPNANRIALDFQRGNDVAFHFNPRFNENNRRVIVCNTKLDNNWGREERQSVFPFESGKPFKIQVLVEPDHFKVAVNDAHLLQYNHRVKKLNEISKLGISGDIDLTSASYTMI
# testDescription: Competitive binding assay: biotinylated hGal-3 binding to microplate-adsorbed asialofetuin (ASF), spectrophotometric
# assayConditions: Gal-3 inhibition, Table 5; read-out: IC50
Record form. Attribute: log10 of IC50. Fill in for each entry.
Scale type: logarithmic (base 10). Underlying IC50 unit: nM.

The examples below pair each entry with its known result.
Find the measured log10 of IC50 of CN(C)C(=O)C(S[C@@H]1O[C@H](CO)[C@H](O)[C@H](n2cc(-c3cc(F)c(F)c(F)c3)nn2)[C@H]1O)C1(O)CCC(F)(F)CC1 (single isomer, unassigned) [Example 2.44.201S.] and report it.
1.60

Look up and report measured log10 of IC50 for this entry: O=C(C(S[C@@H]1O[C@H](CO)[C@H](O)[C@H](n2cc(-c3cc(F)c(F)c(F)c3)nn2)[C@H]1O)C1(O)CCCCC1)N1CCCCC1 (some centres unmarked)
1.30

Identify the reported log10 of IC50 for the following entry. CN(CC(F)(F)F)C(=O)[C@@H](S[C@@H]1O[C@H](CO)[C@H](O)[C@H](n2cc(-c3cc(F)c(F)c(F)c3)nn2)[C@H]1O)C1(O)CCC1 [Example 2.34.219S.]
2.04

Answer with the recorded log10 of IC50 of O=C(C(S[C@@H]1O[C@H](CO)[C@H](O)[C@H](n2cc(-c3cc(F)c(F)c(F)c3)nn2)[C@H]1O)C1(O)CCCC1)N1CCC1 (some centres unmarked) only.
2.36

The record that follows has no log10 of IC50 shown yet.
Please report log10 of IC50 for the following compound: CN(C)C(=O)C(S[C@@H]1O[C@H](CO)[C@H](O)[C@H](n2cc(-c3cc(F)c(F)c(F)c3)nn2)[C@H]1O)C1(O)CCC(F)(F)CC1 (mixture of isomers) [Example 2.44.201.]
2.00
